# Assay Info: osmotic lysis modulators in infected erythrocytes, primary screen, PSAC antagonist project, cell-based, P. falciparum Indochina, OD700, 3 h (AID 1156)
# Condition Summary: higher = more signal, called active from +8 up or from −8 down
Metric Name: z-score
Answer with the value's number alone.

# z-score (compound: `C=C[C@@H](C)[C@@H](OC(=O)Nc1ccc(SC)cc1)c1ccc(OCCO)cc1` ) is 4.42

# z-score (compound: C=C(C)[C@@H]1CC=C(C(O)C2C=CC3C(=O)N(c4ccccc4)C(=O)C3N2Nc2ccc(C#N)cc2)CC1 (stereo not given in full) ) is 0.625

# z-score (compound: `O=C(CS)NCCCCCCNC(=O)[C@@H]1C[C@@H]2C(=O)NCC(=O)N2[C@@H]1c1ccc(O)cc1` ) is 1.62

# z-score (compound: `[N-]=[N+]=Nc1ccccc1C[C@]1(C(=O)O)N=C(c2ccc(OCCCO)cc2)O[C@H]1c1ccccc1N=[N+]=[N-]` ) is 2.88

# z-score (compound: O=C1C2C=CC(C(O)C=Cc3ccc([N+](=O)[O-])cc3)N(Nc3ccccc3)C2C(=O)N1c1ccccc1 (stereo not given) ) is 0.478

# z-score (compound: `CCCCNC(=O)c1ccc(C#C[Si](C(C)C)(C(C)C)C(C)C)c(OC(C)=O)c1` ) is 0.551

# z-score (compound: `COCC(=C=CC[C@H](O)c1cccc(OCCO)c1)C[C@H](O)COCc1ccccc1` ) is 0.307

# z-score (compound: `COCCOC(=O)N1C(=O)[C@@]2(c3cc(C#CCC(C(=O)OC)C(=O)OC)ccc31)[C@H](C(=O)NC[C@H](O)c1ccccc1)[C@H]1C(=O)O[C@H](c3ccccc3)[C@H](c3ccccc3)N1[C@@H]2c1ccc(OCCO)cc1` ) is 0.53

# z-score (compound: O=C1C2C=CC(C(O)c3cccc(O)c3)N(Nc3ccccc3)C2C(=O)N1c1ccccc1 (stereo not given) ) is 0.185

# z-score (compound: `CC(C)C(=C=CC[C@@H](O)c1cccc(OCCO)c1)C[C@@H](O)c1ccccn1` ) is 0.489

# z-score (compound: `O=C1c2ccccc2[C@](Cc2ccccc2I)(C(=O)NC2CC2)[C@H](c2ccc(CO)cc2)N1Cc1ccccc1C(F)(F)F` ) is 4.29

# z-score (compound: `NC(=O)NCC#Cc1ccc2c(c1)[C@]1(C(=O)N2)[C@H](C(=O)N2CCN(c3ncccn3)CC2)[C@H]2C(=O)O[C@H](c3ccccc3)[C@H](c3ccccc3)N2[C@@H]1c1ccc(OCCO)cc1` ) is -0.015

# z-score (compound: COCC1C2CC[C@H]3C(OCc4ccc(OC)cc4)OC[C@]4(C)[C@H]3C2=C(CN4C(=O)OC(C)(C)C)[C@H](C)C1COC (stereo not given in full) ) is 0.308

# z-score (compound: CN1C(=O)C2C=CC(C(O)c3cc(C(F)(F)F)cc(C(F)(F)F)c3)N(Nc3ccccc3)C2C1=O (stereo not given) ) is -0.753

# z-score (compound: CC(C)=CCCC(C)=CC(O)C1C=CC2C(=O)N(c3ccccc3)C(=O)C2N1Nc1ccccc1F (stereo not given) ) is -0.391

* * *

# Assay Info: inhibitors of hydroxyurea-induced Chk1 phosphorylation, primary screen, imaging, HeLa, phospho-Chk1 nuclear intensity (AID 1187); note: test concentration not given here
# Condition Summary: hydroxyurea-induced phospho-Chk1 immunofluorescence imaging, higher = more signal
Metric Name: z-score
Answer with the value's number alone.

# z-score (molecule: O=C1C2C=CC(C(O)c3cccc(O)c3)N(Nc3ccccc3)C2C(=O)N1c1ccccc1 (centres undefined) ) is 0.126

# z-score (molecule: C=CCC(OC(C)=O)[C@@H]1[C@@H](N(Cc2ccc(-c3ccccc3)cc2)C(=O)Cc2ccc(F)cc2)c2cc(OCCCO)ccc2N1C(=O)Cc1ccc2ccccc2c1 (some centres undefined) ) is -0.048

# z-score (molecule: `C=CCN1C(=O)[C@@]2(O[C@@H](CCO)[C@H]([Si](C)(C)c3ccc(OC)cc3)[C@H]2C)c2cc(N3CCOC3=O)ccc21` ) is 0.0448

# z-score (molecule: `[N-]=[N+]=Nc1ccccc1C[C@@]1(C(=O)O)N=C(c2ccc(OCCCO)cc2)O[C@@H]1c1ccccc1N=[N+]=[N-]` ) is -0.317

# z-score (molecule: `COc1ccc([Si](C)(C)[C@H]2[C@H](CCO)O[C@@]3(C(=O)N(Cc4ccccc4)c4ccc(N5C(=O)c6ccccc6Oc6ccccc65)cc43)[C@@H]2C)cc1` ) is -0.608

# z-score (molecule: CN1C(=O)C2C=CC(C(O)c3cc(C(F)(F)F)cc(C(F)(F)F)c3)N(Nc3ccccc3)C2C1=O (centres undefined) ) is 0.0934

# z-score (molecule: `C=C[C@@H](OC)[C@H](OC(=O)Nc1ccc(SC)cc1)c1ccc(OCCO)cc1` ) is 0.168

# z-score (molecule: `COCCOC(=O)N1C(=O)[C@@]2(c3cc(C#CCNC(N)=O)ccc31)[C@H](c1ccc(OCCO)cc1)N1[C@H](c3ccccc3)[C@H](c3ccccc3)OC(=O)[C@H]1[C@@H]2C(=O)NC[C@H](O)c1ccccc1` ) is -0.102

# z-score (molecule: `CC(C)[Si]1(C(C)C)OCc2cc(-c3ccc(-c4ccc(Cl)c(Cl)c4)o3)nc(CCc3ccccc3)c21` ) is -0.229

# z-score (molecule: `C=C(C(=O)CC[C@@H](OC(=O)c1ccccc1-c1ccccc1C(=O)O)c1ccccc1OCCO)C(C)C` ) is 0.916

# z-score (molecule: O=C1C2C=CC(C(O)c3ccc4c(c3)OCO4)N(Nc3ccccc3)C2C(=O)N1c1ccccc1 (centres undefined) ) is 0.614

# z-score (molecule: `CN(C)C(=O)[C@@]1(Cc2ccccc2N=[N+]=[N-])N=C(c2ccc(OCCCO)cc2)O[C@H]1c1ccccc1` ) is -0.303

# z-score (molecule: `COC(=O)C(CC#Cc1ccc2c(c1)[C@]1(C(=O)N2)[C@H](c2ccc(O)cc2)N2[C@H](c3ccccc3)[C@H](c3ccccc3)OC(=O)[C@H]2[C@@H]1C(=O)N1CCCCCCC1)C(=O)OC` ) is 0.413

# z-score (molecule: `CC(C)(C)OC(=O)CC[C@]12N=C(c3ccc(OCCCO)cc3)O[C@H]1c1ccccc1N(Cc1ccccc1)C2=O` ) is 0.363

meta.source: PubChem BioAssay
